Below: a set of entries, each annotated with reported GI50.
- Test system: MDA-MB-435
- test-summary: NCI tumour cell line growth inhibition, 48 h
Calls of active or inactive are those of the source. Rule as the data show it: active = GI50 up to about 1.1 µM and inactive = higher.
observable: GI50

>  <compound>
CC=C/C=C/[C@@H]1O[C@](O)([C@H](CC)C(=O)NC/C=C/C=C(\C)[C@@H](OC)[C@@H](C)[C@@H]2O[C@H](/C=C/C=C/C=C(\C)C(=O)c3c(O)cc[nH]c3=O)[C@H](O)[C@@H]2O)[C@H](O)[C@H](O)C1(C)C

>  <result>
> 100 µM (inactive)

$$$$
>  <compound>
O=C(O)C(O)Cc1ccccn1 (stereo not given)

>  <result>
> 100 µM (inactive)

$$$$
>  <compound>
c1ccc(OCc2nnc(CCCCCCCCc3nnc(COc4ccccc4)o3)o2)cc1

>  <result>
> 100 µM (inactive)

$$$$
>  <compound>
CC#C[C@]1(O)CCC2[C@@H]3CCC4=CC(=O)CCC4=C3[C@@H](c3ccc(N(C)C)cc3)C[C@@]21C (stereo not given in full)

>  <result>
12.2 µM (inactive)

$$$$
>  <compound>
CN(C)c1nc2n(CCO)c(-c3ccccc3)c(-c3ccccc3)nc-2c(=O)n1

>  <result>
> 100 µM (inactive)

$$$$
>  <compound>
CN1C(=O)C(=CNc2ccccc2[N+](=O)[O-])C(=O)N(C)C1=O

>  <result>
> 100 µM (inactive)

$$$$
>  <compound>
O=C(NCCOC(=O)OCCNC(=O)NC1CCCCC1)NC1CCCCC1

>  <result>
> 100 µM (inactive)

$$$$
>  <compound>
CC(C)=C[C@@H]1C[C@H](n2cc(C)c(=O)[nH]c2=O)ON1CCO

>  <result>
> 100 µM (inactive)

$$$$
>  <compound>
C=C(C)CC1=C(C(=S)NCCO[Si](C)(C)C(C)(C)C)C(OCC)(OCC)C1=O

>  <result>
16.9 µM (inactive)

$$$$
>  <compound>
CC(=O)/C(=C/NC(=S)c1ccncc1)C(=O)Nc1ccccc1C

>  <result>
> 100 µM (inactive)

$$$$
>  <compound>
Fc1ccc(OCc2ccc3nc(-c4ccccc4)c(Cl)nc3c2)cc1

>  <result>
91.4 µM (inactive)

$$$$
>  <compound>
CC1=NN(c2nc(N)nc(/C(C#N)=C/c3ccccc3O)n2)C(C)(C)C1

>  <result>
17.3 µM (inactive)

$$$$
>  <compound>
O=C1CCSC(=S)N1c1ccc(Br)c(Cl)c1

>  <result>
26.8 µM (inactive)

$$$$
>  <compound>
O=C(OCC1OC(n2nc(Cn3nnc(-c4cccnc4)n3)n(-c3cccc4ccccc34)c2=S)C(OC(=O)c2ccccc2)C1OC(=O)c1ccccc1)c1ccccc1 (stereo not given)

>  <result>
> 100 µM (inactive)

$$$$
>  <compound>
O=P1(c2ccccc2)C(c2ccccc2)CCC1c1ccccc1 (stereo not given)

>  <result>
34.9 µM (inactive)

$$$$
>  <compound>
O=C1Nc2ccccc2/C1=N/NS(=O)(=O)c1ccc(C(=O)O)cc1

>  <result>
> 100 µM (inactive)

$$$$
>  <compound>
CC(C)C(C=O)C(O)(C(F)(F)F)C(F)(F)F (stereo not given)

>  <result>
> 100 µM (inactive)

$$$$
>  <compound>
O=C(O)CNC(=O)c1ccc([As](=O)(O)O)cc1

>  <result>
> 100 µM (inactive)

$$$$
>  <compound>
CC(C)(C)[C@@H]1NC(=O)CN1C(=O)OCc1ccccc1

>  <result>
> 100 µM (inactive)

$$$$
>  <compound>
Cc1cc(N2CCCC2)c([N+](=O)[O-])cc1[N+](=O)[O-]

>  <result>
> 100 µM (inactive)

$$$$
